test system: NCI-H460 lung; assay: NCI tumour cell line growth inhibition, 48 h
Overview of reported TGI across a group of molecules:

Known results for molecules:
Cc1c(C(=O)C/C(=N\O)C(=O)Nc2cc(Cl)c(Cl)cc2Cl)[n+](=O)c2ccccc2n1[O-]
35.2 µM
CN(C)CC(=O)Nc1ccc(Cn2nnc3c2C(=O)c2nnn(Cc4ccc(NC(=O)CN(C)C)cc4)c2C3=O)cc1
1.2 µM
COc1ccc(-c2csc(N(C(=O)N3CCN(c4cc5c(cc4F)c(=O)c(C(=O)O)cn5C4CC4)CC3)c3ccccc3)n2)cc1
> 100 µM
COc1ccc(OC)c(NC(=O)C2=C(C)NC(C)=C(C(=O)Nc3cc(OC)ccc3OC)C2c2ccccc2)c1
> 100 µM
O=C(CN1CCOCC1)Nc1nc(-c2ccc(Cl)cc2)cs1
> 100 µM
COc1ccc2oc(=N)c(C(=O)NCc3ccccc3)cc2c1
> 100 µM

// switching to the query molecule
Supply recorded TGI for CN(CC1(CO)CCC1)c1cc(Cl)nc(N)n1 here.
> 100 µM

====

system: NCI-H460 lung; experiment: NCI tumour cell line growth inhibition, 48 h
Overview of reported TGI across a group of molecules:
Please give a number only; it is taken to be in µM.

Known results for molecules:
COc1ccc(-c2nn3c(-c4cc(F)c(Cl)cc4Cl)nnc3s2)cc1
86.5
C=CCC[CH2][Sn]([c]1ccccc1)([c]1ccccc1)[c]1ccccc1
3.06
CC#C[C@]1(O)CC[C@H]2[C@@H]3CCC4=CC(=O)CCC4=C3[C@@H](c3ccc4c(c3)OCO4)C[C@@]21C
305

Supply recorded TGI for [N-]=[N+]=Nc1c(C=O)c(=O)n2c3c(cccc13)CCC2 here.
47.2

Supply recorded TGI for C1C[OH+]CC[OH+]CCNCC[OH+]CC[OH+]CCN1.N.[Cl-].[Pt+4] here.
63.9

Supply recorded TGI for C=CCOc1cccc(/C=C2\SC(=Nc3ccc(O)cc3)NC2=O)c1 here.
5.2

Supply recorded TGI for CC1SC(c2ccccc2)N(CCc2cccs2)C1=O (stereo unspecified) here.
14.7

Supply recorded TGI for CC(=O)N1C(=O)/C(=C\C(=O)c2ccc([N+](=O)[O-])cc2)c2ccccc21 here.
39.9

Supply recorded TGI for O=Nc1c(O)cc(Nc2ccc(Br)cc2)c2ccccc12 here.
11

====

tested on: U251 CNS; test: NCI tumour cell line growth inhibition, 48 h
Overview of reported TGI across a group of compounds:

Known results for compounds:
NNC(=O)/C(=C/c1ccc(Cl)cc1Cl)NC(=O)c1ccccc1
> 100 µM
Cc1nc(N)nc(N)c1-c1ccc(Cl)c(Cl)c1
> 100 µM
CCOC(=O)COc1ccccc1/C=C1\CCC(CN(C)C)C1=O (stereo unspecified)
14.8 µM
O=[N+]([O-])c1ccc(-c2csc3nc(-c4ccccc4)nn23)cc1
> 100 µM
Cc1ccc(-c2cn3ccnc3c(-c3ccc(Cl)cc3)n2)cc1
18.1 µM

// switching to the query compound
Supply recorded TGI for CCS(=O)(=O)Nc1ccc(Nc2c3ccccc3nc3ccccc23)c(OC)c1 here.
2.43 µM

====

tested on: MDA-MB-435
Write down the outcome that applies. Available outcomes: 1 (yes) for active, 0 (no) for inactive

Oc1cccc2ccc(N/N=C/c3cc(CN4CCCCC4)c(O)c4ncccc34)nc12
1 (yes)

Called result for CCCCCCCCCCCCCCCCN1CC2CCCCC2C1 (stereo unspecified)
0 (no)

Called result for CN(C)CC(=O)Nc1ccc(Cn2nnc3c2C(=O)c2nnn(Cc4ccc(NC(=O)CN(C)C)cc4)c2C3=O)cc1
1 (yes)

The measured values listed here are drawn from PubChem BioAssay (NCI).
